Test: Plasma concentration of omeprazole and hydroxyomeprazole by HPLC 3 hours after a single oral 20 mg omeprazole dose
Format: in vivo, human
Conditions: both sexes, human, plasma, po, 20 mg, plasma, genotype 1*17, Total (52), 3 h after single oral 20 mg omeprazole; read-out: Mean OMP concentration ± SD
parameterMeasured: concentration at 3 h (ng/mL)

| compound | parameterMeasured | resultUnits | value |
| --- | --- | --- | --- |
| COc1ccc2[nH]c([S+]([O-])Cc3ncc(C)c(OC)c3C)nc2c1 (stereo not shown) | concentration at 3 h | ng/mL | 118 |

----------
Assay: Plasma concentration of omeprazole and hydroxyomeprazole by HPLC 3 hours after a single oral 20 mg omeprazole dose
Assay type: in vivo, human
Conditions: female, human, plasma, po, 20 mg, plasma, genotype 2*17, Women (4), 3 h after single oral 20 mg omeprazole; read-out: Mean OMP concentration ± SD

| compound | concentration at 3 h (ng/mL) |
| --- | --- |
| COc1ccc2[nH]c([S+]([O-])Cc3ncc(C)c(OC)c3C)nc2c1 (stereo not shown) [omeprazole] | 324 |

----------
Test: Plasma concentration of omeprazole and hydroxyomeprazole by HPLC 3 hours after a single oral 20 mg omeprazole dose
Type: in vivo, human
Settings: male, human, plasma, po, 20 mg, plasma, genotype 2*2, Men (1), 3 h after single oral 20 mg omeprazole; read-out: Mean OMP concentration ± SD
parameterMeasured: concentration at 3 h (ng/mL)

| compound | parameterMeasured | value |
| --- | --- | --- |
| COc1ccc2[nH]c([S+]([O-])Cc3ncc(C)c(OC)c3C)nc2c1 (stereo not shown) | concentration at 3 h | 1480 |

----------
Test: Plasma concentration of omeprazole and hydroxyomeprazole by HPLC 3 hours after a single oral 20 mg omeprazole dose
Assay type: in vivo, human
Conditions: male, human, plasma, po, 20 mg, plasma, genotype 2*17, Men (2), 3 h after single oral 20 mg omeprazole; read-out: Mean OMP concentration ± SD

| compound | concentration at 3 h / ng/mL |
| --- | --- |
| COc1ccc2[nH]c([S+]([O-])Cc3ncc(C)c(OC)c3C)nc2c1 (stereo not shown) [omeprazole] | 271 |

----------
Assay: Plasma concentration of omeprazole and hydroxyomeprazole by HPLC 3 hours after a single oral 20 mg omeprazole dose
Assay type: in vivo, human
Settings: both sexes, human, plasma, po, 20 mg, plasma, genotype 2*17, Total (6), 3 h after single oral 20 mg omeprazole; read-out: Mean OMP concentration ± SD

| compound | resultUnits | concentration at 3 h |
| --- | --- | --- |
| COc1ccc2[nH]c([S+]([O-])Cc3ncc(C)c(OC)c3C)nc2c1 (stereo not shown) [omeprazole] | ng/mL | 289 |

----------
Test: Plasma concentration of omeprazole and hydroxyomeprazole by HPLC 3 hours after a single oral 20 mg omeprazole dose
Assay type: in vivo, human
Details: male, human, plasma, po, 20 mg, plasma, genotype 1*1, Men (53), 3 h after single oral 20 mg omeprazole; read-out: Mean OMP concentration ± SD

| compound | concentration at 3 h [µg/mL] |
| --- | --- |
| COc1ccc2[nH]c([S+]([O-])Cc3ncc(C)c(OC)c3C)nc2c1 (stereo not shown) [omeprazole] | 0.123 |

----------
Assay: Plasma concentration of omeprazole and hydroxyomeprazole by HPLC 3 hours after a single oral 20 mg omeprazole dose
Type: in vivo, human
Settings: male, human, plasma, po, 20 mg, plasma, genotype 1*17, Men (37), 3 h after single oral 20 mg omeprazole; read-out: Mean OMP concentration ± SD

| molecule | resultUnits | concentration at 3 h |
| --- | --- | --- |
| COc1ccc2[nH]c([S+]([O-])Cc3ncc(C)c(OC)c3C)nc2c1 (stereo not shown) | ng/mL | 117 |
